Quick record of MIC values for Streptococcus pneumoniae SV-1.

# compound, tgt, reported_relation, MIC [µg/mL]
records = [
    ("CCNCC1CCN(c2c(F)c(F)c3c(=O)c(C(=O)O)cn(CC)c3c2F)C1 (centres unmarked)", "Streptococcus pneumoniae SV-1", "=", 0.2),
    ("CCn1cc(C(=O)O)c(=O)c2c(F)c(F)c(N3CCC4(CCN(C)C4)C3)c(F)c21 (centres unmarked)", "Streptococcus pneumoniae SV-1", "=", 0.8),
    ("CCn1cc(C(=O)O)c(=O)c2c(F)c(F)c(N3CCC(CN)C3)c(F)c21 (centres unmarked)", "Streptococcus pneumoniae SV-1", "≤", 0.1),
    ("CCNCC1CCN(c2c(F)c(F)c3c(=O)c(C(=O)O)cn(C4CC4)c3c2F)C1 (centres unmarked)", "Streptococcus pneumoniae SV-1", "=", 0.2),
    ("CCn1cc(C(=O)O)c(=O)c2c(F)c(F)c(N3CCC(CNC)C3)c(F)c21 (centres unmarked)", "Streptococcus pneumoniae SV-1", "=", 0.4),
]
